Tested on: C. elegans
Test: C. elegans dose-response (viability, minimum lethal concentration)
Format: in vivo, Caenorhabditis elegans
Condition Summary: Caenorhabditis elegans, 72 h; L1 worms, 3 days at 20° C.; same values in ppm; read-out: Minimum Lethal Concentration (ppm)
Metric Name: minimal effective concentration

>>> reported_value("Cc1c(-c2ccccc2F)nc2sccn12")
"> 23.2 µg/mL"
>>> reported_value("Cc1c(-c2cccc(F)c2)nc2sccn12")
"> 23.2 µg/mL"
>>> reported_value("Cc1csc2nc(-c3ccccc3F)cn12")
"> 23.2 µg/mL"
>>> reported_value("Cc1cn2cc(-c3ccccc3Cl)nc2s1")
"> 24.9 µg/mL"
>>> reported_value("Cc1c(-c2ccc(F)cc2)nc2sccn12")
"> 23.2 µg/mL"
